The reported numbers originate from patent EP1421935A1.

- EXPERIMENTAL TARGET: hCA I (Homo sapiens, UniProt P00915)
- Sequence (P00915 whole entry): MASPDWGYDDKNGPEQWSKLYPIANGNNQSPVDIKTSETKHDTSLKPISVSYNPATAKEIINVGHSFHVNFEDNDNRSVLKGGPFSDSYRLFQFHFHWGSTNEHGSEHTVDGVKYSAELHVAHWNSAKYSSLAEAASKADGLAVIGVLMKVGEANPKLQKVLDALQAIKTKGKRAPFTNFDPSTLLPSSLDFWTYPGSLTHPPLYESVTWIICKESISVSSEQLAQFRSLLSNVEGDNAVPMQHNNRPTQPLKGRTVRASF
- EXPERIMENT DESCRIPTION: CA inhibition, esterase method (4-nitrophenylacetate hydrolysis)
ENDPOINT: log10(Ki) (log10 of the value in nM)
Short version: log10 scale, Ki, nM.

Give its log10(Ki) value. Item: NS(=O)(=O)c1ccc(CNC(=S)NC(CC(=O)O)C(=O)NC(CC(=O)O)C(=O)O)cc1 (stereo not drawn)
1.57

Field request: log10(Ki) | item: CC(NC(=S)NCc1ccc(S(N)(=O)=O)cc1)C(=O)O (stereo not drawn)
1.68

Name the reported log10(Ki) value associated with the compound N=C(N)NCCCC(NC(=S)NCc1ccc(S(N)(=O)=O)cc1)C(=O)O (stereo not drawn)
2.01

Which log10(Ki) reading was recorded for the compound NC(=O)CC(NC(=S)NCc1ccc(S(N)(=O)=O)cc1)C(=O)O (stereo not drawn) ?
1.34

// lookup log10(Ki) for NS(=O)(=O)c1ccc(CNC(=S)NCCC(=O)NC(Cc2cnc[nH]2)C(=O)O)cc1 (stereo not drawn)
1.34

Give the measured log10(Ki) of NS(=O)(=O)c1ccc(CNC(=S)NC(CO)C(=O)O)cc1 (stereo not drawn) .
1.36

For CC(NC(=S)NCc1ccc(S(N)(=O)=O)cc1)C(=O)NC(Cc1ccccc1)C(=O)O (stereo not drawn) , what is its reported log10(Ki)?
1.32

// returns reported log10(Ki) for input NS(=O)(=O)c1ccc(CNC(=S)NC(Cc2ccc(O)c(O)c2)C(=O)O)cc1 (stereo not drawn)
1.48

Given the entry `NS(=O)(=O)c1ccc(CNC(=S)NCCc2ccccn2)cc1` , report its measured log10(Ki).
2.08

Bench note: what log10(Ki) did `NS(=O)(=O)c1ccc(CNC(=S)Nc2ccc(C(=O)O)cc2)cc1` show?
1.67

I would be grateful if you could share the reported log10(Ki) for `NS(=O)(=O)c1ccc(CN=C=S)cc1` .
3.63

Consider the compound shown here: NS(=O)(=O)c1ccc(CNC(=S)NC(CCC(=O)O)C(=O)O)cc1 (stereo not drawn) What is its recorded log10(Ki)?
1.59

Recorded log10(Ki) for `NS(=O)(=O)c1ccc(CNC(=S)Nc2cccc(C(=O)O)c2)cc1` , please?
1.58

Can you share its log10(Ki)? I mean this compound: `NS(=O)(=O)c1ccc(CNC(=S)NCC(=O)O)cc1`
1.75

Given the entry NS(=O)(=O)c1ccc(CNC(=S)NC(Cc2cnc[nH]2)C(=O)O)cc1 (stereo not drawn) , report its measured log10(Ki).
1.52

Would you kindly share the measured log10(Ki) for NS(=O)(=O)c1ccc(CNC(=S)NC(Cc2cnc[nH]2)C(=O)NCC(=O)O)cc1 (stereo not drawn) ?
1.08

Look at this compound and give its reported log10(Ki). `NS(=O)(=O)c1ccc(CNC(=S)NCCC(=O)O)cc1`
1.59

Consider the compound shown here: NS(=O)(=O)c1ccc(CNC(=S)N2CCCC2C(=O)O)cc1 (stereo not drawn) What is its recorded log10(Ki)?
1.95

Return reported log10(Ki); argument: `NS(=O)(=O)c1ccc(CNC(=S)Nc2ccccc2C(=O)O)cc1`
1.73

Look up log10(Ki) for this compound: `NS(=O)(=O)c1ccc(CNC(=S)NCc2ccccn2)cc1`
2.09

For the compound `NS(=O)(=O)c1ccc(CNC(=S)NCCc2ccccc2)cc1` , what log10(Ki) is on record?
2.10
